Assignment: determine reported MIC for the given molecules.
# System: Staphylococcus aureus
# method: Antibacterial activity against Staphylococcus aureus ATCC 29213 assessed as growth inhibition
# Format: functional
Answers are plain numbers, in µg/mL.

State recorded MIC for all listed molecules.
1. CC[C@H]1OC(=O)[C@H](C)[C@@H](OC(=O)N2CCCC2)[C@H](C)[C@@H](O[C@@H]2O[C@H](C)C[C@H](N(C)C)[C@H]2O)[C@](C)(OC)C[C@@H](C)C(=O)[C@H](C)[C@H]2NC(=O)O[C@@]21C
2. CC[C@H]1OC(=O)[C@H](C)[C@@H](OC(=O)N2CC(C)(C)C[C@@H]2c2cccnc2)[C@H](C)[C@@H](O[C@@H]2O[C@H](C)C[C@H](N(C)C)[C@H]2O)[C@](C)(OC)C[C@@H](C)C(=O)[C@H](C)[C@H]2NC(=O)O[C@@]21C

Response:
1. 4
2. 4

Request: # query: MIC of entry CC[C@H]1OC(=O)[C@H](C)[C@@H](OC(=O)N2CCC[C@H]2c2ccccc2)[C@H](C)[C@@H](O[C@@H]2O[C@H](C)C[C@H](N(C)C)[C@H]2O)[C@](C)(OC)C[C@@H](C)C(=O)[C@H](C)[C@H]2NC(=O)O[C@@]21C
Response: 2

----------
# Test system: Staphylococcus aureus
# method: Antibacterial activity against methicillin-resistant Staphylococcus aureus 2111-10-USA300 harboring cfr gene assessed as growth inhibition
# Assay type: functional
Assignment: determine reported MIC for the given compounds.

# count of solved cases: 5
compound	MIC
CC[C@H]1OC(=O)[C@H](C)[C@@H](OC(=O)N2CC(C)(C)C[C@@H]2c2ccc(Cl)cc2)[C@H](C)[C@@H](O[C@@H]2O[C@H](C)C[C@H](N(C)C)[C@H]2O)[C@](C)(OC)C[C@@H](C)C(=O)[C@H](C)[C@H]2NC(=O)O[C@@]21C	0.25 µg/mL
CC[C@H]1OC(=O)[C@H](C)[C@@H](OC(=O)N2CC(C)(C)C[C@@H]2c2ccc3c(c2)OCO3)[C@H](C)[C@@H](O[C@@H]2O[C@H](C)C[C@H](N(C)C)[C@H]2O)[C@](C)(OC)C[C@@H](C)C(=O)[C@H](C)[C@H]2NC(=O)O[C@@]21C	0.25 µg/mL
CC[C@H]1OC(=O)[C@H](C)[C@@H](OC(=O)N2CC(C)(C)C[C@@H]2c2cccc3c2OCO3)[C@H](C)[C@@H](O[C@@H]2O[C@H](C)C[C@H](N(C)C)[C@H]2O)[C@](C)(OC)C[C@@H](C)C(=O)[C@H](C)[C@H]2NC(=O)O[C@@]21C	0.125 µg/mL
CC(=O)NC[C@H]1CN(c2ccc(N3CCOCC3)c(F)c2)C(=O)O1 [LINEZOLID]	0.5 µg/mL
CC[C@H]1OC(=O)[C@H](C)[C@@H](OC(=O)N2CC(C)(C)C[C@@H]2c2cccc(Cl)c2)[C@H](C)[C@@H](O[C@@H]2O[C@H](C)C[C@H](N(C)C)[C@H]2O)[C@](C)(OC)C[C@@H](C)C(=O)[C@H](C)[C@H]2NC(=O)O[C@@]21C	0.25 µg/mL

State recorded MIC for all listed compounds.
1. CC[C@H]1OC(=O)[C@H](C)[C@@H](OC(=O)N2CCC[C@@H]2c2cccnc2)[C@H](C)[C@@H](O[C@@H]2O[C@H](C)C[C@H](N(C)C)[C@H]2O)[C@](C)(OC)C[C@@H](C)C(=O)[C@H](C)[C@H]2NC(=O)O[C@@]21C
2. CC[C@H]1OC(=O)[C@H](C)[C@@H](OC(=O)N2CC(C)(C)C[C@@H]2c2ccc(Cl)cc2Cl)[C@H](C)[C@@H](O[C@@H]2O[C@H](C)C[C@H](N(C)C)[C@H]2O)[C@](C)(OC)C[C@@H](C)C(=O)[C@H](C)[C@H]2NC(=O)O[C@@]21C
3. CC[C@H]1OC(=O)[C@H](C)[C@@H](OC(=O)N2CC(C)(C)C[C@@H]2c2ccccc2Cl)[C@H](C)[C@@H](O[C@@H]2O[C@H](C)C[C@H](N(C)C)[C@H]2O)[C@](C)(OC)C[C@@H](C)C(=O)[C@H](C)[C@H]2NC(=O)O[C@@]21C
4. CC[C@H]1OC(=O)[C@H](C)[C@@H](O[C@H]2C[C@@](C)(OC)[C@@H](O)[C@H](C)O2)[C@H](C)[C@@H](O[C@@H]2O[C@H](C)C[C@H](N(C)C)[C@H]2O)[C@](C)(OC)C[C@@H](C)C(=O)[C@H](C)[C@@H](O)[C@]1(C)O [CLARITHROMYCIN]
5. CC[C@H]1OC(=O)[C@H](C)[C@@H](OC(=O)N2CCC[C@@H]2c2ccccc2)[C@H](C)[C@@H](O[C@@H]2O[C@H](C)C[C@H](N(C)C)[C@H]2O)[C@](C)(OC)C[C@@H](C)C(=O)[C@H](C)[C@H]2NC(=O)O[C@@]21C
6. CC[C@H]1OC(=O)[C@H](C)[C@@H](OC(=O)N2CC(C)(C)C[C@@H]2c2cccc(Cl)c2Cl)[C@H](C)[C@@H](O[C@@H]2O[C@H](C)C[C@H](N(C)C)[C@H]2O)[C@](C)(OC)C[C@@H](C)C(=O)[C@H](C)[C@H]2NC(=O)O[C@@]21C

Response:
0.25 µg/mL
0.25 µg/mL
0.25 µg/mL
0.5 µg/mL
> 64 µg/mL
0.5 µg/mL

----------
Assignment: determine reported MIC for the given molecules.
# Tested on: Streptococcus pyogenes
# method: Antibacterial activity against macrolides, lincosamides, and streptogramin B-resistant Streptococcus pyogenes 1304-00 assessed as growth inhibition
# Type: functional
One number for each entry, in µg/mL.

# count of solved cases: 2
smiles-code	measured-target	uom	result
CC[C@H]1OC(=O)[C@H](C)[C@@H](O[C@H]2C[C@@](C)(OC)[C@@H](O)[C@H](C)O2)[C@H](C)[C@@H](O[C@@H]2O[C@H](C)C[C@H](N(C)C)[C@H]2O)[C@](C)(OC)C[C@@H](C)C(=O)[C@H](C)[C@@H](O)[C@]1(C)O	Streptococcus pyogenes	µg/mL	0.25
CC[C@H]1OC(=O)[C@H](C)[C@@H](OC(=O)N2CC(C)(C)C[C@@H]2c2cccc3c2OCO3)[C@H](C)[C@@H](O[C@@H]2O[C@H](C)C[C@H](N(C)C)[C@H]2O)[C@](C)(OC)C[C@@H](C)C(=O)[C@H](C)[C@H]2NC(=O)O[C@@]21C	Streptococcus pyogenes	µg/mL	0.03

State recorded MIC for all listed molecules.
1. CC[C@H]1OC(=O)[C@H](C)[C@@H](OC(=O)N2CCCC2)[C@H](C)[C@@H](O[C@@H]2O[C@H](C)C[C@H](N(C)C)[C@H]2O)[C@](C)(OC)C[C@@H](C)C(=O)[C@H](C)[C@H]2NC(=O)O[C@@]21C
2. CC[C@H]1OC(=O)[C@H](C)[C@@H](OC(=O)N2CC(C)(C)C[C@@H]2c2cccc(Cl)c2)[C@H](C)[C@@H](O[C@@H]2O[C@H](C)C[C@H](N(C)C)[C@H]2O)[C@](C)(OC)C[C@@H](C)C(=O)[C@H](C)[C@H]2NC(=O)O[C@@]21C

Response:
1. 0.5
2. 0.03

----------
# System: Streptococcus pyogenes
# method: Antibacterial activity against macrolides, lincosamides, and streptogramin B-resistant Streptococcus pyogenes 1304-00 assessed as growth inhibition
# Format: functional
Assignment: determine reported log10 of MIC for the given compounds.
Field: value | Transform: log10 | Quantity: MIC | Unit: µg/mL

smiles-code	reported-endpoint	result
CC[C@H]1OC(=O)[C@H](C)[C@@H](OC(=O)N2CC(C)(C)C[C@@H]2c2cccc(Cl)c2Cl)[C@H](C)[C@@H](O[C@@H]2O[C@H](C)C[C@H](N(C)C)[C@H]2O)[C@](C)(OC)C[C@@H](C)C(=O)[C@H](C)[C@H]2NC(=O)O[C@@]21C	log10 of MIC	0.00
CC[C@H]1OC(=O)[C@H](C)[C@@H](OC(=O)N2CC(C)(C)C[C@@H]2c2ccccc2Cl)[C@H](C)[C@@H](O[C@@H]2O[C@H](C)C[C@H](N(C)C)[C@H]2O)[C@](C)(OC)C[C@@H](C)C(=O)[C@H](C)[C@H]2NC(=O)O[C@@]21C	log10 of MIC	-0.60
CC[C@H]1OC(=O)[C@H](C)[C@@H](OC(=O)N2CC(C)(C)C[C@@H]2c2cccnc2)[C@H](C)[C@@H](O[C@@H]2O[C@H](C)C[C@H](N(C)C)[C@H]2O)[C@](C)(OC)C[C@@H](C)C(=O)[C@H](C)[C@H]2NC(=O)O[C@@]21C	log10 of MIC	-1.52
CC[C@H]1OC(=O)[C@H](C)[C@@H](OC(=O)N2CC(C)(C)C[C@@H]2c2ccc(Cl)c(Cl)c2)[C@H](C)[C@@H](O[C@@H]2O[C@H](C)C[C@H](N(C)C)[C@H]2O)[C@](C)(OC)C[C@@H](C)C(=O)[C@H](C)[C@H]2NC(=O)O[C@@]21C	log10 of MIC	-0.90
CC[C@H]1OC(=O)[C@H](C)[C@@H](OC(=O)N2CC(C)(C)C[C@@H]2c2ccc(Cl)cc2)[C@H](C)[C@@H](O[C@@H]2O[C@H](C)C[C@H](N(C)C)[C@H]2O)[C@](C)(OC)C[C@@H](C)C(=O)[C@H](C)[C@H]2NC(=O)O[C@@]21C	log10 of MIC	-0.90

State recorded log10 of MIC for all listed compounds.
1. CC[C@H]1OC(=O)[C@H](C)[C@@H](OC(=O)N2CC(C)(C)C[C@@H]2c2ccc3c(c2)OCO3)[C@H](C)[C@@H](O[C@@H]2O[C@H](C)C[C@H](N(C)C)[C@H]2O)[C@](C)(OC)C[C@@H](C)C(=O)[C@H](C)[C@H]2NC(=O)O[C@@]21C
2. CC[C@H]1OC(=O)[C@H](C)[C@@H](OC(=O)N2CCC[C@@H]2c2cccnc2)[C@H](C)[C@@H](O[C@@H]2O[C@H](C)C[C@H](N(C)C)[C@H]2O)[C@](C)(OC)C[C@@H](C)C(=O)[C@H](C)[C@H]2NC(=O)O[C@@]21C
3. CC(=O)NC[C@H]1CN(c2ccc(N3CCOCC3)c(F)c2)C(=O)O1

Response:
[0.30, -0.30, -0.90]

Request: # query: log10 of MIC of entry CC[C@H]1OC(=O)[C@H](C)[C@@H](OC(=O)N2CC(C)(C)C[C@@H]2c2ccc(Cl)cc2Cl)[C@H](C)[C@@H](O[C@@H]2O[C@H](C)C[C@H](N(C)C)[C@H]2O)[C@](C)(OC)C[C@@H](C)C(=O)[C@H](C)[C@H]2NC(=O)O[C@@]21C
Response: -1.52
